Values compiled from patent US20220089599A1.

I'd be grateful if you could share measured pIC50 for these entries.
# System: KCL22
# Assay type: cell-based
# ASSAY SETUP: Homo sapiens, KCL-22; cell activities of other nicotinamide compounds, KCL22; read-out: IC50 KCL22
// scale note: pIC50 = -log10(conc_M); give the bare number

Ask | pIC50 for CN1CCN(Cc2ccc(NC(=O)c3cncc(C#Cc4cncc5nccn45)c3)cc2C(F)(F)F)CC1 ?
Reply | 8.53

Ask | pIC50 for Cc1ncc(C(=O)Nc2ccc(CN3CCN(C)CC3)c(C(F)(F)F)c2)cc1C#Cc1cnc2cccnn12 ?
Reply | 10.22

Ask | pIC50 for CN1CCN(Cc2ccc(NC(=O)c3cncc(C#Cc4cnc5ccccn45)c3)cc2C(F)(F)F)CC1 ?
Reply | 9.05

Ask | pIC50 for CN1CCN(Cc2ccc(NC(=O)c3cncc(C#Cc4cnc5cnccn45)c3)cc2C(F)(F)F)CC1 ?
Reply | 8.58

Ask | pIC50 for CN1CCN(Cc2ccc(NC(=O)c3cncc(C#Cc4cnc5ccnn5c4)c3)cc2C(F)(F)F)CC1 ?
Reply | 7.55

Ask | pIC50 for CN1CCN(Cc2ccc(C(=O)Nc3cncc(C#Cc4cnc5cccnn45)c3)cc2C(F)(F)F)CC1 ?
Reply | 8.85
